Target: Bromodomain-containing protein 7 (Homo sapiens)
Sequence (Q9NPI1 whole entry): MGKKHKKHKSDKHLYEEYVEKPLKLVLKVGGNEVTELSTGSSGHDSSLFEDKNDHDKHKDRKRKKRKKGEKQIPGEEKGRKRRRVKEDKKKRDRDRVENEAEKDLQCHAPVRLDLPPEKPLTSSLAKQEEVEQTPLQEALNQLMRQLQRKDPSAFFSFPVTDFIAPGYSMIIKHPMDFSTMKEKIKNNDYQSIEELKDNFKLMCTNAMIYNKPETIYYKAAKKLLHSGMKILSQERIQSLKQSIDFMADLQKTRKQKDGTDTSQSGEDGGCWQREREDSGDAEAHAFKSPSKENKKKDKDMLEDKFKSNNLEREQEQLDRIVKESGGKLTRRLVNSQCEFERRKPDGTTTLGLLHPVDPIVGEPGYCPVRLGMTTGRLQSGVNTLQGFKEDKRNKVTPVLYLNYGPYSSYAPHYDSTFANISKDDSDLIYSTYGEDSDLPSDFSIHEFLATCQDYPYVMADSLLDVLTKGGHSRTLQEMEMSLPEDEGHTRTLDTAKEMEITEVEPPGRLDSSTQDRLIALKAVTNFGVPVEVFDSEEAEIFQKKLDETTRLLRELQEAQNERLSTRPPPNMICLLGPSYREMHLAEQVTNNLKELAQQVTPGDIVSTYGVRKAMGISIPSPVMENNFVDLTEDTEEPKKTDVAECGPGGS
Assay: Inhibition of BRD7 (unknown origin) by TR-FRET assay

| Compound | Value units | IC50 |
| --- | --- | --- |
| CC1(C2CC2)NC(=O)N(CC(=O)Nc2ccc(Br)c(S(=O)(=O)N3CCCCC3)c2)C1=O (racemic) | µM | 63.1 |

---

biological target: ATPase family AAA domain-containing protein 2 (Homo sapiens); assay: Binding affinity to 15N-labelled ATAD2 (981 to 1108 residues) (unknown origin) at 100 uM by 1H-15N HSQC NMR analysis
The source made the active and inactive calls. The rule behind the calls is not given here.
Possible outcomes: active, inactive

| Compound | Target system | Label |
| --- | --- | --- |
| O=C(CCNC(=O)c1ccccc1)Nc1ccc(Cl)c(S(=O)(=O)N2CCCCC2)c1 | ATPase family AAA domain-containing protein 2 (Homo sapiens) | active |
| O=C(CCNC1=NS(=O)(=O)c2ccccc21)Nc1ccc(Cl)c(S(=O)(=O)N2CCCC2)c1 | ATPase family AAA domain-containing protein 2 (Homo sapiens) | active |
| Cc1ccc(C2(C)NC(=O)N(CC(=O)Nc3ccc(C)c(S(=O)(=O)N4CCCCC4)c3)C2=O)cc1 (centres undefined) | ATPase family AAA domain-containing protein 2 (Homo sapiens) | active |
| Cc1ccc(NC(=O)CN2C(=O)NC(C)(C3CC3)C2=O)cc1S(=O)(=O)N1CCCCC1 (centres undefined) | ATPase family AAA domain-containing protein 2 (Homo sapiens) | active |
| Cc1[nH]c(=O)c(C#N)c(C)c1CCC(=O)Nc1ccc(Cl)c(S(=O)(=O)N2CCCCC2)c1 | ATPase family AAA domain-containing protein 2 (Homo sapiens) | active |
| Cc1ccc(NC(=O)CN2C(=O)NC(Cc3ccccc3)C2=O)cc1S(=O)(=O)N1CCCCC1 (centres undefined) | ATPase family AAA domain-containing protein 2 (Homo sapiens) | active |
| O=C(CN1C(=O)NC(CCc2ccccc2)C1=O)Nc1ccc(Cl)c(S(=O)(=O)N2CCCCC2)c1 (centres undefined) | ATPase family AAA domain-containing protein 2 (Homo sapiens) | active |
| CN1CCN(c2nc(C(=O)c3ccccc3)c3cnn(C)c3n2)CC1 | ATPase family AAA domain-containing protein 2 (Homo sapiens) | inactive |
| CSCCC1NC(=O)N(CC(=O)Nc2ccc(Cl)c(S(=O)(=O)N3CCOCC3)c2)C1=O (centres undefined) | ATPase family AAA domain-containing protein 2 (Homo sapiens) | active |
